# system-under-test: human PILRA G78 on cells (human, UniProt Q9UKJ1 20-303)
# Sequence (Q9UKJ1 20-303 R78G limits assumed): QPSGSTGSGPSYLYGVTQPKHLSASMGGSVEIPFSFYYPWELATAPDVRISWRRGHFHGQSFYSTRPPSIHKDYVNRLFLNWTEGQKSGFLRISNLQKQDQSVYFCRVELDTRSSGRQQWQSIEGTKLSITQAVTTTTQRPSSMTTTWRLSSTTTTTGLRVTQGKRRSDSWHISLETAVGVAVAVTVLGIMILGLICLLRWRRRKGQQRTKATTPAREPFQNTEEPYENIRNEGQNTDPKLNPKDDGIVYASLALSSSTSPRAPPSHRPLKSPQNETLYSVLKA
# run-description: cell-based or functional assay
Reported values of pSTAT3 Y705 induction, EC50 (nM) for individual entries

binder: Anti-PILRA antibody clone 2 (antibody, human IgG1, kappa, L234A L235A, V domains shown, also called Ab; Clone 2; Ab.2) VH: EVQLVESGGGLVQPGRSLRLSCAVSGFTFDDYAMHWVRQAPGKGLEWVSGFSWNSGSIGYPDSVKGRFTISRDNAKNSLYLQMNSLRAEDTAFYYCAKDKSISAAGRFDYWGQGTLVTVSS VL: DIQMTQSPSSLSASVGDRVTITCQASRRINNYLNWYQQKPGKAPKLLIYDASNLETGVPSRFTGSGSGTDFTLTISSLQPEDIATYYCQQYDNLPLTFGGGTKVEIKR
pSTAT3 Y705 induction, EC50 (nM): 1.45
--
binder: Anti-PILRA antibody clone 9 (antibody, V domains shown, also called Ab; Clone 9) VH: QVQLQESGPGLVKPSGTLSLTCAVSGGSISSNNWWSWVRQPPGKGLEWIGEIYHFGTTTYNPSLKSRVTISVDKSKNQFSLKLSSLTAADTAVYYCARTLRDFYYYMDVWGKGTTVTVSS VL: DIHMTQSPSSLSASVGDRVTITCRTSQNINTYLNWYQQRPGRAPKLLIYAASSLQSGVPSRFSGSGSGTDFILSISSLQPEDFATYYCQQSFNIPLTFGGGTKVEIK
pSTAT3 Y705 induction, EC50 (nM): 5.93
--
binder: Anti-PILRA antibody clone 1 (antibody, V domains shown) VH: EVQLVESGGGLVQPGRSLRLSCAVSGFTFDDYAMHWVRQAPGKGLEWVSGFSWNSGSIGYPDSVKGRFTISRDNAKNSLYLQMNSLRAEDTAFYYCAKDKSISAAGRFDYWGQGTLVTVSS VL: DIQMTQSPSSLSASVGDRVTITCQASRRINNYLNWYQQKPGKAPKLLIYDASNLETGVPSRFTGSGSGTDFTLTISSLQPEDIATYYCQQYDNLPLTFGGGTKIKIK
pSTAT3 Y705 induction, EC50 (nM): 5.66
--
binder: Anti-PILRA antibody clone 5 (antibody, human IgG1, kappa, L234A L235A, V domains shown, also called Ab; Clone 5; Ab.5) VH: QVQLVQSGAEVKKPGASVRVSCKASGYTFIGFYIHWVRQAPGQGLEWMGWINPESGDTTYAQKFQGRVTMTTDTSINTAYMDLNRLRSDDSAVYFCARGNWNFPDTFDFWGQGTMVIVSS VL: DIQMTQSPSSLSASVGDRVTITCRSSQSISIYLNWHQQIPGKAPKLLIYVASSLQSGIPSRFSGRGSGTEFTLTISSLQPEDFATYYCQQSYSAPFTFGPGTKVDIKR
pSTAT3 Y705 induction, EC50 (nM): 1.51
